- procedure_text: T. cruzi intracellular proliferation inhibitors, primary screen, cell-based, beta-gal Tulahuen parasites, NIH3T3 host, luminescence (AID 624255)
- assay_conditions: T. cruzi beta-gal in NIH3T3, GalScreen luminescence, 90 h; at 8.34 µM; active compounds read high
Screen size: about 77,000 compounds; about 4,600 (6%) were called active. Inconclusive results (about 1%) are left out. The entries come from a sample that favours actives as a whole.
measured_endpoint: inhibition (%)
Your answer is read as %, so omit the unit and give the number.

Asked: I'd like to know its inhibition. The compound in question is Cc1noc(C)c1S(=O)(=O)N(C)C[C@@H]1Oc2ccc(NC(=O)Cn3cnnn3)cc2CC(=O)N([C@@H](C)CO)C[C@@H]1C
Given back: -16.4

Asked: // same read-out, input: C[C@@H]1CN([C@@H](C)CO)C(=O)c2cc(NC(=O)C3CCCCC3)ccc2O[C@@H](C)CCCCO[C@H]1CN(C)Cc1ccncc1
Given back: 106

Asked: Entry CCCN(C)C[C@H]1Oc2cc(C#CC3CCCC3)ccc2S(=O)(=O)N([C@H](C)CO)C[C@@H]1C please
Given back: 98.6

Asked: Same lookup for CCCNC(=O)C[C@@H]1C[C@H]2c3cc(NC(=O)Nc4ccccc4F)ccc3O[C@H]2[C@H](CO)O1 , please.
Given back: 10.8

Asked: And the next one, C[C@@H](NC(=O)C[C@@H]1C[C@H]2c3cc(NC(=O)C4CCC4)ccc3O[C@H]2[C@@H](CO)O1)c1ccccc1 ?
Given back: -32.2

Asked: Moving on to the next compound: COc1ccc(NC(=O)Nc2ccc3c(c2)C(=O)N([C@@H](C)CO)C[C@H](C)[C@@H](CN(C)Cc2ccc4c(c2)OCO4)O3)cc1
Given back: 31.2

Asked: Another compound to check: C[C@@H]1CCCCO[C@@H](CN(C)Cc2ccc(C(=O)O)cc2)[C@H](C)CN([C@@H](C)CO)C(=O)c2cc(NC(=O)C3CCCCC3)ccc2O1
Given back: -8.6
